Hello, the source for this data is paper PMC12757722, in case you need it.

Target: Rac-1 (Homo sapiens, UniProt P63000)
Assay: MST binding of labeled nucleotide
Conditions: read-out: MST GTP Kd
Value kind: Kd (nM)

{"Compound": "Nc1nc2c(ncn2[C@@H]2O[C@H](COP(=O)(O)OP(=O)(O)OP(=O)(O)O)[C@@H](O)[C@H]2O)c(=O)[nH]1 [GTP]", "Measured target": "Rac-1 (Homo sapiens, UniProt P63000)", "Result number": 166}

* * *

Biological target: K-Ras (WT) (Homo sapiens, UniProt P01116)
Sequence (P01116 2-185 isoform P01116-2): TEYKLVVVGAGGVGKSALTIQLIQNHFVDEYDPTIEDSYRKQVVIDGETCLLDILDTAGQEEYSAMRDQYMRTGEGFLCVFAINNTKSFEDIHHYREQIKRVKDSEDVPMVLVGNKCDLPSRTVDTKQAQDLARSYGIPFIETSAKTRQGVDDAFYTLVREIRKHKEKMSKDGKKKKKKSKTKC
Test: SPA with [32P]GTP
Type: binding
Conditions: read-out: SPA GTP Kd; K-Ras (WT)
pKd: −log10 of the molar value.

{"Molecule": "Nc1nc2c(ncn2[C@@H]2O[C@H](COP(=O)(O)OP(=O)(O)OP(=O)(O)O)[C@@H](O)[C@H]2O)c(=O)[nH]1 [GTP]", "Measured target": "K-Ras (WT) (Homo sapiens, UniProt P01116)", "pKd": 6.61}

* * *

Target: K-Ras (G12D) (Homo sapiens, UniProt P01116, G12D)
Sequence (P01116 2-185 isoform P01116-2 G12D): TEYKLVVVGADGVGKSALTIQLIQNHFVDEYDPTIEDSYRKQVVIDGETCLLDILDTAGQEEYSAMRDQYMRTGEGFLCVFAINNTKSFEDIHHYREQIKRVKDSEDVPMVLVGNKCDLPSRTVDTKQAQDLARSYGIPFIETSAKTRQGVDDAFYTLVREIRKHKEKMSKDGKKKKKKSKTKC
Assay: SPA with [32P]GTP
Format: binding
Conditions: read-out: SPA GTP Kd

{"Structure": "Nc1nc2c(ncn2[C@@H]2O[C@H](COP(=O)(O)OP(=O)(O)OP(=O)(O)O)[C@@H](O)[C@H]2O)c(=O)[nH]1", "Unit info": "nM", "Kd": 280}

* * *

Target: K-Ras (G12C) (Homo sapiens, UniProt P01116, G12C)
Sequence (P01116 2-185 isoform P01116-2 G12C): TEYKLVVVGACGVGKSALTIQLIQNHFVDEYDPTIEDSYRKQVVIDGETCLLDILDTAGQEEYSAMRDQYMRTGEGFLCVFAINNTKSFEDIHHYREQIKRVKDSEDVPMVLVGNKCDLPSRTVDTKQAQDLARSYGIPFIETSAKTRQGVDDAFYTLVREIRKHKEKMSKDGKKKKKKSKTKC
Assay: MST binding of labeled nucleotide
Details: read-out: MST GDP Kd
Value kind: Kd (nM)

{"Structure": "Nc1nc2c(ncn2[C@@H]2O[C@H](COP(=O)(O)OP(=O)(O)O)[C@@H](O)[C@H]2O)c(=O)[nH]1", "Value kind": "Kd", "Result number": 360}

* * *

Target: UniProtKB P61586
Sequence (P61586 2-181): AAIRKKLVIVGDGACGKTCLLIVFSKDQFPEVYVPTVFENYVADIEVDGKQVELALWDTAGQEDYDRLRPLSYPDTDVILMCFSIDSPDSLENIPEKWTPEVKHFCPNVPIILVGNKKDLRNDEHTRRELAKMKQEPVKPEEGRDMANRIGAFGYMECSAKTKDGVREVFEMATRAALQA
Assay: MST binding of labeled nucleotide
Details: read-out: MST GTP Kd
pKd: −log10 of the molar value.
Value kind: pKd

{"Structure": "Nc1nc2c(ncn2[C@@H]2O[C@H](COP(=O)(O)OP(=O)(O)OP(=O)(O)O)[C@@H](O)[C@H]2O)c(=O)[nH]1", "Measured target": "UniProtKB P61586", "Result number": 6.89}

* * *

Molecular target: UniProt P01116
Experiment: MST binding of labeled nucleotide
Conditions: read-out: MST GTP Kd, 23°C

{"Compound": "Nc1nc2c(ncn2[C@@H]2O[C@H](COP(=O)(O)OP(=O)(O)OP(=O)(O)O)[C@@H](O)[C@H]2O)c(=O)[nH]1 [GTP]", "Measured target": "UniProt P01116", "Kd / nM": 463}
